- method: Selectivity index, ratio of IC50 for HUVEC to IC50 for Plasmodium falciparum
- Type: toxicity
- experimentalParameters: human, read-out: Ratio IC50
reportedEndpoint: selectivity ratio

IN: Recorded selectivity ratio of CCCCc1nc2cc(/C=C/C(=O)NO)ccc2n1CCN(CC)CC [PRACINOSTAT] , please.
OUT: 4 to 1250

---

- method: Selectivity index, ratio of IC50 for HEK293 cells to IC50 for Trypanosoma brucei brucei
- Assay type: toxicity
- experimentalParameters: human, read-out: Selectivity Index
reportedEndpoint: selectivity ratio

IN: Recorded selectivity ratio of C/C=C1\NC(=O)[C@H]2CSSCC/C=C/[C@H](CC(=O)N[C@H](C(C)C)C(=O)N2)OC(=O)[C@H](C(C)C)NC1=O [ROMIDEPSIN] , please.
OUT: < 1
